Assay: Human Plasma Protein Binding (Test B)
Format: in vitro ADME
Conditions: fraction unbound (fu)
REPORTED ENDPOINT: Test B Human Plasma Protein Binding (% free)
Give bare numbers, in % free.

Observe how each entry below is paired with its result.
Ask: # Test B Human Plasma Protein Binding (% free) lookup, item COc1cc(F)c(O[C@H]2CC[C@@](CC#N)(C(=O)O)CC2)cc1C(=O)N[C@@H]1[C@H]2CC[C@H](C2)[C@@H]1C(=O)NCC1(C)CCC1
Result: 6.7

Ask: # Test B Human Plasma Protein Binding (% free) lookup, item COc1cc(Cl)c(O[C@H]2CC[C@@](C)(C(=O)O)CC2)cc1C(=O)N[C@@H]1[C@H]2CC[C@H](C2)[C@@H]1C(=O)NC12CC(F)(C1)C2
Result: 1.8

---
Ask: # Test B Human Plasma Protein Binding (% free) lookup, item COc1cc(F)c(O[C@H]2CC[C@@](C)(C(=O)O)CC2)cc1C(=O)Nc1ccc(C)cc1C(=O)NCC1(C)CCC1
Result: 0.64

----------
Give measured Test A Sinf for each item. Keep answers brief.
Target: human RXFP1 (Homo sapiens)
Experiment: RXFP1 Hu cAMP (Test A)
Assay type: cell-based
Design: expressed in transfected cells; host or cells: Jump-In T-REx CHO-K1 cells (ThermoFisher), induced with 10 ng/ml doxycycline for 24 h
Details: RXFP1 Hu cAMP
Answers are plain numbers, in %.

Ask: # Test A Sinf lookup, item COc1cc(F)c(O[C@H]2CC[C@@](C)(C(=O)O)CC2)cc1C(=O)N[C@@H]1CCOC[C@@H]1C(=O)Nc1cccc(S(=O)(=O)C(F)(F)F)c1 (racemic) [Example 341]
Result: 86

Ask: # Test A Sinf lookup, item COc1cc(F)c(-c2ccc(C[C@H](C(=O)O)N(C)C)cc2)cc1C(=O)N[C@@H]1[C@H]2CC[C@H](C2)[C@@H]1C(=O)Nc1cccc(S(=O)(=O)C(F)(F)F)c1 [Example 292]
Result: 110

Alright, here's another compound for you.
Ask: # Test A Sinf lookup, item CC1(CNC(=O)[C@H]2[C@@H]3CC[C@@H](C3)[C@H]2NC(=O)c2cc(O[C@H]3CC[C@@](C)(C(=O)O)CC3)c(C#N)cc2F)CCC1 [Example 401]
Result: 115

----------
Give measured EC50 for each item. Keep answers brief.
Molecular target: human RXFP1 (Homo sapiens, UniProt Q9HBX9)
Sequence (Q9HBX9 whole entry): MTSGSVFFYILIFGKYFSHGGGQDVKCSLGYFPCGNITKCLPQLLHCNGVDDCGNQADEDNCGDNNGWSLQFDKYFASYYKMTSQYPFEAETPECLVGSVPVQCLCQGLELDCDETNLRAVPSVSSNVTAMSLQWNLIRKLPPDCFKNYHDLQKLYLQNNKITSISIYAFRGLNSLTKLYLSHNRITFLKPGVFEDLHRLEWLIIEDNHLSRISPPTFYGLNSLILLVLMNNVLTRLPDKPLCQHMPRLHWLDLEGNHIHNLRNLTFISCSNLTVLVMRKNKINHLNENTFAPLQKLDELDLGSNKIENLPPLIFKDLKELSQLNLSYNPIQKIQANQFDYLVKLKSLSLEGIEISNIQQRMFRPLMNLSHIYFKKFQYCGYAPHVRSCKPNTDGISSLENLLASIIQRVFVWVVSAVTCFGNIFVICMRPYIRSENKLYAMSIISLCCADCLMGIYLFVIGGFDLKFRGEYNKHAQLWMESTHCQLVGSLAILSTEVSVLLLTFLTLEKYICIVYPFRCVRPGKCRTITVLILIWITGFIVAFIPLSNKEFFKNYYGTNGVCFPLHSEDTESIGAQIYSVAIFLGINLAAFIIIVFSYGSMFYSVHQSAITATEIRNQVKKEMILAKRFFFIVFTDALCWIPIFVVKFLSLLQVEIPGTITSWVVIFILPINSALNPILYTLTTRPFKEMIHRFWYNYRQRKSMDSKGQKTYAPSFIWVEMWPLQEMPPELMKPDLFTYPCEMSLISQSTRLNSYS
Test: RXFP1 Hu cAMP (Test A)
Assay type: cell-based
Design: expressed in transfected cells; host or cells: Jump-In T-REx CHO-K1 cells (ThermoFisher), induced with 10 ng/ml doxycycline for 24 h
Conditions: RXFP1 Hu cAMP; read-out: Test A EC50
One number for each entry, in nM.

Ask: # EC50 lookup, item COc1cc(C#N)c(O[C@H]2CC[C@@](C)(C(=O)O)CC2)cc1C(=O)Nc1cc(Cl)ccc1C(=O)NC[C@H]1C[C@@H](C)C1
Result: 78

Ask: # EC50 lookup, item COc1cc(C#N)c(O[C@H]2CC[C@@](C)(C(=O)O)CC2)cc1C(=O)Nc1cc(C)ccc1C(=O)NCc1cccc(F)c1
Result: 580

Ask: # EC50 lookup, item COc1cc(F)c(O[C@H]2CC[C@@](C)(C(=O)O)CC2)cc1C(=O)NC1C2CCC(O2)C1C(=O)NCC1(C)CCC1 (single isomer, unassigned)
Result: 170

Ask: # EC50 lookup, item COc1cc(F)c(-c2cccc(CC(=O)O)c2)cc1C(=O)N[C@H]1[C@@H](C(=O)Nc2cccc(S(=O)(=O)C(F)(F)F)c2)[C@@H]2C=C[C@H]1C2 (racemic)
Result: 870

Ask: # EC50 lookup, item COc1cc(F)c(O[C@H]2CC[C@@](C)(C(=O)O)CC2)cc1C(=O)N[C@@H]1[C@H]2CC[C@H](C2)[C@@H]1C(=O)NCC1(OC)CCC1
Result: 520

Parameter requested: EC50. Apply to each item below.
1. COc1cc(F)c(OC2CCCC(C(=O)O)C2)cc1C(=O)N[C@@H]1[C@H]2CC[C@H](C2)[C@@H]1C(=O)Nc1cccc(S(=O)(=O)C(F)(F)F)c1 (single isomer, unassigned) [Example 446]
2. COc1c(F)cc(O[C@H]2CC[C@@](C)(C(=O)O)CC2)cc1C(=O)N[C@@H]1[C@H]2CC[C@H](C2)[C@@H]1C(=O)NC12CC(F)(C1)C2
3. COc1cc(F)c(O[C@H]2CC[C@@H](C(=O)O)CC2)cc1C(=O)N[C@@H]1[C@H]2CC[C@H](C2)[C@@H]1C(=O)Nc1cc(C(F)(F)F)ncn1
4. COc1cc(F)c(OC2CCCC(C(=O)O)C2)cc1C(=O)N[C@@H]1[C@H]2CC[C@H](C2)[C@@H]1C(=O)Nc1cccc(S(=O)(=O)C(F)(F)F)c1 (single isomer, unassigned) [Example 447]
5. COc1cc(F)c(OC[C@H]2C[C@@H](C(=O)O)C2)cc1C(=O)N[C@@H]1[C@@H]2CC[C@@H](C2)[C@@H]1C(=O)Nc1cccc(S(=O)(=O)C(F)(F)F)c1
6. COc1cc(F)c(-c2ccc(C(=O)O)cc2)cc1C(=O)N[C@@H]1[C@H]2CC[C@H](C2)[C@@H]1C(=O)Nc1cccc(S(F)(F)(F)(F)F)c1
7. COc1cc(F)c(OCCCCCCCCC(=O)O)cc1C(=O)N[C@@H]1[C@H]2CC[C@H](C2)[C@@H]1C(=O)Nc1cccc(S(=O)(=O)C(F)(F)F)c1
8. COc1cc(F)c(O[C@H]2CC[C@@](C)(C(=O)O)CC2)cc1C(=O)N[C@@H]1[C@H]2CC[C@H](C2)[C@@H]1C(=O)NCC(C)(C)C#N

Result:
1. 900
2. 180
3. 750
4. 830
5. 140
6. 88
7. 950
8. 200

Parameter requested: EC50. Apply to each item below.
1. COc1cc(F)c(-c2ccc(C(=O)O)cc2)cc1C(=O)N[C@@H]1[C@@H]2CC[C@@H](C2)[C@@H]1C(=O)Nc1cccc(S(=O)(=O)C(F)(F)F)c1 (racemic)
2. COc1cc(F)c(-c2ccc3c(c2)OC[C@H]3CC(=O)O)cc1C(=O)N[C@@H]1[C@H]2CC[C@H](C2)[C@@H]1C(=O)Nc1cccc(S(=O)(=O)C(F)(F)F)c1

Result:
[260, 31]

----------
Assay: Solubility (Test F)
Format: physicochemical
Conditions: arithmetic mean if run multiple times
Give measured solubility for each item. Keep answers brief.
One number for each entry, in µM.

Ask: # solubility lookup, item COc1cc(F)c(O[C@H]2CC[C@@H](C(=O)O)CC2)cc1C(=O)N[C@@H]1[C@H]2CC[C@H](C2)[C@@H]1C(=O)Nc1cccc(Cl)c1
Result: 440

Parameter requested: solubility. Apply to each item below.
1. COc1cc(F)c(-c2ccc(CCC(=O)O)cc2)cc1C(=O)N[C@@H]1[C@H]2CC[C@H](C2)[C@@H]1C(=O)Nc1cccc(S(=O)(=O)C(F)(F)F)c1
2. COc1cc(F)c(O[C@H]2CC[C@@](C)(C(=O)O)CC2)cc1C(=O)N[C@@H]1[C@H]2CC[C@H](C2)[C@@H]1C(=O)NCC(C)(C)C(F)(F)F
3. COc1cc(F)c(-c2ccc(C[C@@H](N)C(=O)O)cc2)cc1C(=O)N[C@@H]1[C@H]2CC[C@H](C2)[C@@H]1C(=O)Nc1cccc(S(=O)(=O)C(F)(F)F)c1

Result:
[240, 38, 13]

----------
Give measured log10 solubility for each item. Keep answers brief.
Assay: Solubility (Test F)
Format: physicochemical
Details: arithmetic mean if run multiple times
Quick note: numbers are log10 of solubility, with µM as the unit.

Observe how each entry below is paired with its result.
Ask: # log10 solubility lookup, item COc1cc(F)c(O[C@H]2CC[C@@](C)(C(=O)O)CC2)cc1C(=O)N[C@@H]1[C@H]2CC[C@H](C2)[C@@H]1C(=O)N[C@H](C)C(C)C [Example 46]
Result: 2.58

Ask: # log10 solubility lookup, item CCC(CC)CNC(=O)[C@H]1[C@@H]2CC[C@@H](C2)[C@H]1NC(=O)c1cc(O[C@H]2CC[C@@](C)(C(=O)O)CC2)c(C#N)cc1OC [Example 88]
Result: 2.79

Ask: # log10 solubility lookup, item COc1c(C#N)cc(O[C@H]2CC[C@@](C)(C(=O)O)CC2)cc1C(=O)N[C@@H]1[C@H]2CC[C@H](C2)[C@@H]1C(=O)NCC1(C)CCC1 [Example 404]
Result: 3.00

Ask: # log10 solubility lookup, item COc1cc(C#N)c(O[C@H]2CC[C@@](C)(C(=O)O)CC2)cc1C(=O)N[C@@H]1[C@H]2CC[C@H](C2)[C@@H]1C(=O)NC12CC(C1)C2 [Example 141]
Result: 2.96

Ask: # log10 solubility lookup, item COc1cc(C#N)c(O[C@H]2CC[C@@](C)(C(=O)O)CC2)cc1C(=O)N[C@@H]1[C@H]2CC[C@H](C2)[C@@H]1C(=O)NCC1(CO)CCC1 [Example 75]
Result: 2.94

---
Ask: # log10 solubility lookup, item COc1cc(F)c(O[C@H]2CC[C@@](C)(C(=O)O)CC2)cc1C(=O)N[C@@H]1[C@H]2CC[C@H](C2)[C@@H]1C(=O)NC(C(C)C)C(C)C [Example 40]
Result: 0.40
